target: binding between PCSK9 and the LDL receptor (Homo sapiens, UniProt Q8NBP7); construct: purchased CircuLex; experiment: In vitro PCSK9-LDLR binding assay (CircuLex kit)
Sequence (Q8NBP7 153-692): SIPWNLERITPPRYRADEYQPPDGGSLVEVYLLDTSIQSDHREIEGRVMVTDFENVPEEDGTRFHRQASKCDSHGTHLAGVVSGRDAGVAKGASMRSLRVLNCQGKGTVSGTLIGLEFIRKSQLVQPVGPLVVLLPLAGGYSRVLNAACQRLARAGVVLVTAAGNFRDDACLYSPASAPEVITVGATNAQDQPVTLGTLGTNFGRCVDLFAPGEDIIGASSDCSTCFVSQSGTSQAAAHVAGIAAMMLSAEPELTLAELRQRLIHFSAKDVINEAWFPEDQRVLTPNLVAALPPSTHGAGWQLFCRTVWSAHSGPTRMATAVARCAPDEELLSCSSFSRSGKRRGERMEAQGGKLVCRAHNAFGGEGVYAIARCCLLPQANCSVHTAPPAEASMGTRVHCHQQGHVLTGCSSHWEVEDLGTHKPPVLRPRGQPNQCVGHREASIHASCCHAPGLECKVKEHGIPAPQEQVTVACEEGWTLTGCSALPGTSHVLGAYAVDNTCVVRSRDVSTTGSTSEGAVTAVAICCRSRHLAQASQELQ
Sequence (Q8NBP7 31-152 partner limits assumed): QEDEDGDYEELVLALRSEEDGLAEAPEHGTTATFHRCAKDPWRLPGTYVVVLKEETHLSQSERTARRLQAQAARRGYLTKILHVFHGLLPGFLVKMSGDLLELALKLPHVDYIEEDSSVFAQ
Recorded IC50, one value per entry.
assay.metric: IC50 (µM)

>>> df
                                chem_smiles  meas_value
0  Cc1cnc(C(=O)Nc2cc(CN3CCC(F)(F)[C@H](N)C3)cc(-c3ccc(C(F)(F)F)nc3)c2)cc1-c1ccccc1       0.547
1  Cc1cn(-c2cc(CN3CCC[C@H](N)C3)cc(NC(=O)c3cc(-c4ccccc4)ccn3)c2)cn1        0.32
2  Cc1ccc(-c2cc(CN3CCC(F)(F)[C@H](N)C3)cc(NC(=O)c3cc(-c4ccccc4)ccn3)c2)cn1       0.279

---

experiment: Dedicated pharmacokinetic study, single oral dose; format: in vivo, C57BL/6 mice; settings: female, C57BL/6, mouse, plasma; mice; PO 50 mg/kg study
assay.metric: Cmax (ng/mL)

                                chem_smiles  meas_value
0  Cc1cnc(C(=O)Nc2cc(CN3CCC(F)(F)[C@H](N)C3)cc(-c3ccc(C(F)(F)F)nc3)c2)cc1-c1ccccc1        6740
1  Cc1cn(-c2cc(CN3CCC[C@H](N)C3)cc(NC(=O)c3cc(-c4ccccc4)ccn3)c2)cn1        1480
2  Cc1ccc(-c2cc(CN3CCC(F)(F)[C@H](N)C3)cc(NC(=O)c3cc(-c4ccccc4)ccn3)c2)cn1       10800

---

assay: Cassette pharmacokinetic study, intravenous; assay type: in vivo, C57BL/6 mice; settings: male, C57BL/6, mouse, plasma; mice; route not given (IV study 0.4 mg/kg); read-out: VSS
assay.metric: Vd (L/kg)

>>> print(df.to_string())
                                   compound  meas_value
0  Cc1cnc(C(=O)Nc2cc(CN3CCC(F)(F)[C@H](N)C3)cc(-c3ccc(C(F)(F)F)nc3)c2)cc1-c1ccccc1 [compound 131]        3.25
1  Cc1ccc(-c2cc(CN3CCC(F)(F)[C@H](N)C3)cc(NC(=O)c3cc(-c4ccccc4)ccn3)c2)cn1 [Compound 122]        1.29

---

Target: hERG channel (Homo sapiens)
Construct: expressed in transfected cells; host or cells: CHO
Sequence (Q12809 whole entry): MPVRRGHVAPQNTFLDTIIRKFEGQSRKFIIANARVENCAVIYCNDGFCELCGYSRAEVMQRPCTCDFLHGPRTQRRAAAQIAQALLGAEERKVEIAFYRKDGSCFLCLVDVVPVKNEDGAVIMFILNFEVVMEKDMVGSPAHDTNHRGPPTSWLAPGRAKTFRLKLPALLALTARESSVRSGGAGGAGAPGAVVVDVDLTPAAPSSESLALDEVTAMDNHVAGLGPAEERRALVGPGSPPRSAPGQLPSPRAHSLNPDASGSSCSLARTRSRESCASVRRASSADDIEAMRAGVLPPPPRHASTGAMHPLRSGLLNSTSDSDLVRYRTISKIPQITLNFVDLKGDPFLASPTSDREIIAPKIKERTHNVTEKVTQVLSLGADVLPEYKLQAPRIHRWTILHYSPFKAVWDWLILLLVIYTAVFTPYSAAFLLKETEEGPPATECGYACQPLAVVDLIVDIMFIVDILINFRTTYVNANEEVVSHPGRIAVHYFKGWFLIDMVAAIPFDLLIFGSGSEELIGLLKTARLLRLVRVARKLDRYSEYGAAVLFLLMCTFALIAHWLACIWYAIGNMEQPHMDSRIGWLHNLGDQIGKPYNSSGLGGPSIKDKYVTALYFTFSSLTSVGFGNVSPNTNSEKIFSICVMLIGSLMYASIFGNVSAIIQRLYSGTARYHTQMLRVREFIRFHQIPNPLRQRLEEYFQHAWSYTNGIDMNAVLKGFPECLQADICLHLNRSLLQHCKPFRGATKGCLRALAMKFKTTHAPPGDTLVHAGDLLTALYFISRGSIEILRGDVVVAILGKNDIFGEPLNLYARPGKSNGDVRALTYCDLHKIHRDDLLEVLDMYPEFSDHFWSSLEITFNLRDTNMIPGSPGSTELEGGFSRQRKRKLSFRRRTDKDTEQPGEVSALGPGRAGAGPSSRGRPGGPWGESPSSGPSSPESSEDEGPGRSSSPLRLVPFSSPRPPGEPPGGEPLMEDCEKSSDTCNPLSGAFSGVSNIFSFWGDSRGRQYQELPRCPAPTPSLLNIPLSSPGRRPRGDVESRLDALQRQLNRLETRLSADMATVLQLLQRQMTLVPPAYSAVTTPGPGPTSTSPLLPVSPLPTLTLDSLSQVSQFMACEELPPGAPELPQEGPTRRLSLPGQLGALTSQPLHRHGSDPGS
Assay: hERG assay (automated QPatch)
Type: cell-based
Settings: CHO cells expressing hERG channels
Procedure: A CHO cell line stably transfected with hERG cDNA and expressing hERG channels was used. Cells used in the QPatch all met the following criteria: under microscopy examination, the majority of cells in suspension were single and isolated, their viability was greater than 95%, cell density ranged between 3-8×10^6 cells/mL in the final suspension before applying to the QPatch stir chamber. Cells were used within 4 hours of harvesting. […]
Recorded IC50, one value per entry.
assay.metric: IC50 (µM)

                                chem_smiles            target_under_test  assay_metric  meas_value
0  Cc1cnc(C(=O)Nc2cc(CN3CCC(F)(F)[C@H](N)C3)cc(-c3ccc(C(F)(F)F)nc3)c2)cc1-c1ccccc1  hERG channel (Homo sapiens)          IC50        94.2
1  Cc1ccc(-c2cc(CN3CCC(F)(F)[C@H](N)C3)cc(NC(=O)c3cc(-c4ccccc4)ccn3)c2)cn1  hERG channel (Homo sapiens)          IC50        35.7
2  Cc1cn(-c2cc(CN3CCC[C@H](N)C3)cc(NC(=O)c3cc(-c4ccccc4)ccn3)c2)cn1  hERG channel (Homo sapiens)          IC50        2.85
